- Test system: MS2 coat protein
- ASSAY: apparent KD of MS2 coat protein; designed switch direction (-1 OFF switch, 1 ON switch): -1; higher = weaker reporter binding
- STATED CONDITIONS: Eterna round: R95; input ligand: FMN 200 uM
ENDPOINT LABEL: apparent KD of MS2 coat protein (nM)
Supply the numeric figure in nM, leaving out any unit text.

Examples from the recorded data:
POLYMER SEQUENCE	MEASURED RESULT
UGAAAGGUAGGAUAUACGAAGAAAAAGGGUAGAAUAAUAACACAUGAGGAUCACCCAUGUAGAAGGACCAAAGG [Mat - Exclusion 2 - Mod of my Tesla design - D9] (puzzle: Exclusion 2)	70.1
GAAAAGGUAGGAUAUACGAAAAGAAAGGGUAGAAAAAAAACACAUGAGGAUCACCCAUGUAGAAGGACCAAAAG [salish99_ex2_r3_027] (puzzle: Exclusion 2)	58.7
GAGUAGUAAGGAUAUAGUAGGAGGGAGAAGUGAGGAGAGAACUAGAAGGUACAUGAGGAUCACCCAUGUUGAGA [JR_Exclu4_Sub084] (puzzle: Exclusion 4)	24.3
CAUGAUCUUCGGAAAAUGUACAUGAGGAUCACCCAUGUGACGAGUUACAUGAAAAACAAGCUUUUUGCUCGUCUUAU [Sensor v3 - Turn-off variant 1 - 10] (puzzle: Sensor v3, turn-off variant 1)	411

# input for lookup
Which apparent KD of MS2 coat protein value belongs to AGUAGAUCUACGCUUGCGUGGAUCUGCUAUGCAGGUGUCACAUGAGGAUCACCCAUGUCCUCAUUUGUUCGUCUUAU [JL turnoff v2 99.16] (puzzle: Sensor v3, turn-off variant 2) ?
18.7

* * *

- Tested on: MS2 coat protein
- ASSAY: apparent KD of MS2 coat protein; designed switch direction (-1 OFF switch, 1 ON switch): -1; higher = weaker reporter binding
- STATED CONDITIONS: input ligand: none
Measured apparent KD of MS2 coat protein of individual entries
Supply the numeric figure in nM, leaving out any unit text.

Examples from the recorded data:
POLYMER SEQUENCE	EXPERIMENTAL SYSTEM	apparent KD of MS2 coat protein [nM]
AGUACUAACACGAAAGUGUUAGUACAAUAAGCUUGUGAUACAUGAGGAUCACCCAUGUCCUCAUAAGCUCGUCUUAU [salish99_TOv2_r3_045] (Eterna round: R96, puzzle: Sensor v3, turn-off variant 2)	MS2 coat protein	24.2
AACAAGCUUUUAAGAUCCUACAUGAGGAUCACCCAUGUGCUCGUCUUGUAACGUACUGUGACGAAAGUCACGGUACG [JL TOV1 3.29] (Eterna round: R97, puzzle: Sensor, turn-off variant 1)	MS2 coat protein	182
AGCUUUUUGUUCGUCUUACACAUGAGGAUCACCCAUGUGUCGGACCGCAUCGAUAGAUGUAGACCGAGAAGCAUGGG [Omdei Mir OFFv1 C9] (Eterna round: R97, puzzle: Sensor, turn-off variant 1)	MS2 coat protein	98.9

# input for lookup
Enter reported apparent KD of MS2 coat protein observed with MS2 coat protein for UACCUGAGGCAAAGCUUUAGGUAAACAUGAGGAUCACCCAUGUAGGAUAUGGUAGGCAAAGCUUACCAGAAGGACAUGAUAAUU [Mat - Exclusion NG 3 - Mod of JL - D35] (Eterna round: R96, puzzle: Exclusion NG 3)
80.4

Values were extracted from the supplement of paper PMC9170038.
